Each item that follows carries a reported pest or weed control at 121.5 g/ha.
Test system: Puccinia triticina
procedure text: Fungicidal activity: wheat brown rust (PUCCRT), disease control on wheat seedlings
Assay type: in vivo
stated conditions: Puccinia triticina, 24 h, LV activity at 121.5 g/H, 1 Day Protectant, read-out: PUCCRT 1DP disease control rating

Would you please look over these solved cases?
Any idea what its pest or weed control at 121.5 g/ha is? The compound is COc1cc(F)ccc1[C@@H](Sc1ccccc1)[C@H](C)OC(=O)[C@H](C)NC(=O)c1nccc(OC)c1OC(C)=O
> 80%

Same thing, different compound: COc1ccnc(C(=O)N[C@@H](C)C(=O)O[C@@H](C)[C@@H](c2ccccc2)S(=O)(=O)c2ccc(C)cc2)c1OC(C)=O
≤ 80%

Further cases:
Could you tell me which pest or weed control at 121.5 g/ha is on file for COc1ccnc(C(=O)N[C@@H](C)C(=O)O[C@@H](C)[C@H](Sc2ccccc2)c2ccccc2)c1OC(=O)OC(C)=O ?
> 80%

Next compound: COc1ccnc(C(=O)N[C@@H](C)C(=O)O[C@@H](C)[C@@H](c2ccccc2)S(=O)(=O)c2ccc(C(F)(F)F)cn2)c1OC(C)=O
≤ 0%

Thanks! And COc1ccnc(C(=O)N[C@@H](C)C(=O)O[C@@H](C)[C@H](Sc2ccccc2)c2ccccc2)c1OC(=O)OC(=O)C(C)C ?
> 80%

Values were extracted from patent US10214490B2.
